Target: L. major FPPS (Leishmania major, UniProt Q4QBL1)
Sequence (Q4QBL1 1-362): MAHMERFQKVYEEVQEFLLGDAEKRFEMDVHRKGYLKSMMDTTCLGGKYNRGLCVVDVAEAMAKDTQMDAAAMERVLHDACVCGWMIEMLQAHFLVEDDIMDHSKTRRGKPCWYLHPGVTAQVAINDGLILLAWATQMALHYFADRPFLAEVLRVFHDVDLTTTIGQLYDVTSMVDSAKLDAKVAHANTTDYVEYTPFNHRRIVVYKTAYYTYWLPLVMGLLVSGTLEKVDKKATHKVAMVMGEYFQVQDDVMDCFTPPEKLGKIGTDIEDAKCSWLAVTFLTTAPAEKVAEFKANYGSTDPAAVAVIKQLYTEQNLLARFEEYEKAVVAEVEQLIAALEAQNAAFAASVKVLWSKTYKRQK
Assay: biochemical
Type: biochemical
Settings: Table 1 and text; read-out: L. major FPPS Ki
Below, each of the molecules is paired with its reported Ki value.
Just the number in nM, nothing appended.

Previously resolved entries follow.
| MOLECULE | VALUE_UNIT | ASSAY_VALUE |
| --- | --- | --- |
| Cc1cccc(Cc2ccc[n+](CC(O)(P(=O)([O-])O)P(=O)(O)O)c2)c1 (stereo not drawn) | nM | 70 |
| O=P([O-])(O)C(O)(C[n+]1cccc(Cc2ccccc2)c1)P(=O)(O)O (stereo not drawn) | nM | 160 |
| O=P([O-])(O)C(O)(C[n+]1cccc(-c2ccc(O)cc2)c1)P(=O)(O)O (stereo not drawn) | nM | 75 |

For the molecule COc1ccc[n+](CC(O)(P(=O)([O-])O)P(=O)(O)O)c1 (stereo not drawn) , give its measured Ki value.
30

Input Cc1ccc[n+](CC(O)(P(=O)([O-])O)P(=O)(O)O)c1 (stereo not drawn) , output reported Ki.
38

Entry CCCCc1ccc[n+](CC(O)(P(=O)([O-])O)P(=O)(O)O)c1 (stereo not drawn) needs its Ki filled in; supply it.
20

---

Let's look at some molecules and their measured pEC50.
system: Vγ2Vδ2 T cells; assay: gammadelta T cell stimulation (TNF-α release assay); type: cell-based, human; conditions: Table 4; read-out: (3) gammadelta T cell stimulation EC50
Note: pEC50 values are expressed as the negative base-10 logarithm of concentration in M.

Record excerpt, results attached:
| MOLECULE | PROPERTY_MEASURED | ASSAY_VALUE |
| --- | --- | --- |
| O=P([O-])(O)C(C[n+]1cccc(Cl)c1)P(=O)(O)O (stereo not shown) | pEC50 | 5.07 |
| Cc1cc[n+](CC(O)(P(=O)([O-])O)P(=O)(O)O)cc1C (stereo not shown) | pEC50 | 4.89 |
| Cc1ccc2ccc[n+](CC(O)(P(=O)([O-])O)P(=O)(O)O)c2c1 (stereo not shown) | pEC50 | 2.72 |
| O=P([O-])(O)C(O)(C[n+]1cccc2cc(Cl)ccc21)P(=O)(O)O (stereo not shown) | pEC50 | 4.28 |
| O=P([O-])(O)C(C[n+]1cc(F)cc(F)c1)P(=O)(O)O (stereo not shown) | pEC50 | 4.96 |
| CC(C)=CCc1ccc[n+](CC(P(=O)([O-])O)P(=O)(O)O)c1 (stereo not shown) | pEC50 | 4.16 |
| CCCCCCc1ccc[n+](CC(P(=O)([O-])O)P(=O)(O)O)c1 (stereo not shown) | pEC50 | 4.46 |
| CCCCc1ccc[n+](CC(O)(P(=O)([O-])O)P(=O)(O)O)c1 (stereo not shown) | pEC50 | 5.28 |

# context switch: different molecule, same pEC50
Provide Vγ2Vδ2 T cells pEC50 reading for CC(C)CCc1ccc[n+](CC(P(=O)([O-])O)P(=O)(O)O)c1 (stereo not shown) .
4.66

Data credit: patent US7745422B2
